Entry source: patent US10111854B2

# measurement.notes: Cytotoxicity, peritoneal elicited macrophages (PEM)
# Assay type: cell-based, mouse
# protocol.conditions: mouse, peritoneal elicited macrophages (PEM), peritoneal elicited macrophages; read-out: Cytotoxicity IC50, PEM
measurement.type: IC50 (µM)
I only need the number, in µM, no unit after it.

Bench note: what IC50 did N=C(N)c1ccc(OCCCCCOc2ccc(C(=N)N)cc2)cc1 show?
30.4

----------
# measurement.notes: Cytotoxicity, RAW264.7 macrophages
# Assay type: cell-based
# protocol.conditions: mouse, RAW264.7 macrophage cells; murine macrophages RAW264.7
# Description: Promastigotes of visceral L. donovani Ld39 and LdHU3, and cutaneous L. amazonensis LV78, L. braziliensis UA847 and L. major FV1 were employed in the study. […] IC50 values of known antileishmanials and the amine-containing flavonoid monomers of the present invention to promastigotes (L. amazonensis LV78, L major FV1, L. donovani HU3, L. donovani 39), macrophages (Raw 264.7 and PEM) and mouse fibroblast (L929) were determined. […]
measurement.type: IC50
The answer should read as a number with its unit following.

Bench note: what IC50 did N=C(N)c1ccc(OCCCCCOc2ccc(C(=N)N)cc2)cc1 show?
30 µM
